system: CPAE (calf pulmonary artery endothelia); experiment: Thrombolytic test in vitro: CPAE culture supernatant on fibrin plate, lysis circle; format: cell-based; details: 5 µl of 0.2 mg/ml compound solution per well of CPAE cells, 72 hours; 5 µl supernatant on fibrin plate with plasminogen, 4 hours; 4 mm or more = thrombolytic ability induced
Where a name gives a salt, the structure may show the parent alone.
OBSERVABLE: Diameter (mm) of the circle due to fibrinolysis
Numbers only here, please. The scale is mm.

Study these solved cases before continuing.
>  <MOLECULE>
CCCCCCN1C[C@H](O)[C@@H](O)[C@H](O)[C@H]1CO [Compound No. 8, N-Hexylmoranoline tosylate]

>  <ASSAY_SYSTEM>
CPAE (calf pulmonary artery endothelia)

>  <REPORTED>
6.3

$$$$
>  <MOLECULE>
OCC1C(O)C(O)C(O)CN1CC=Cc1ccccc1 (stereo not drawn)

>  <ASSAY_SYSTEM>
CPAE (calf pulmonary artery endothelia)

>  <REPORTED>
8.4

$$$$
>  <MOLECULE>
CC(=CCN1C[C@H](O)[C@@H](O)[C@H](O)[C@H]1CO)c1ccc(Br)cc1

>  <ASSAY_SYSTEM>
CPAE (calf pulmonary artery endothelia)

>  <REPORTED>
7.9

$$$$
>  <MOLECULE>
CC(C)=CCC/C(C)=C/CN1C[C@H](O)[C@@H](O)[C@H](O)[C@H]1CO [Compound No. 24, N-Geranylmoranoline tosylate]

>  <ASSAY_SYSTEM>
CPAE (calf pulmonary artery endothelia)

>  <REPORTED>
7.6

$$$$
>  <MOLECULE>
OC[C@@H]1[C@@H](O)[C@H](O)[C@@H](O)CN1CC=Cc1ccccc1 [Compound No. 14, N-Cinnamylmoranoline hydrochloride]

>  <ASSAY_SYSTEM>
CPAE (calf pulmonary artery endothelia)

>  <REPORTED>
5.9

$$$$

Please examine the following record next.
Ask | Item: `O[C@H]1[C@H](O)[C@@H](O)CN2CC[C@H](O)[C@H]12` Test system: CPAE (calf pulmonary artery endothelia) Read-out: Diameter (mm) of the circle due to fibrinolysis Value: ?
Reply | 6.9

---

tested on: CPAE (calf pulmonary artery endothelia); assay: Thrombolytic test in vitro: CPAE culture supernatant on fibrin plate, lysis circle; format: cell-based; settings: 5 µl of 0.2 mg/ml compound solution per well of CPAE cells, 72 hours; 5 µl supernatant on fibrin plate with plasminogen, 4 hours; 4 mm or more = thrombolytic ability induced
Counter-ions that a name gives are not always drawn.
OBSERVABLE: Diameter (mm) of the circle due to fibrinolysis
Numbers only here, please. The scale is mm.

>  <MOLECULE>
CCCCN1C[C@H](O)[C@@H](O)[C@H](O)[C@H]1CO [Compound No. 2a, N-(n-Butyl)moranoline]

>  <UNIT_ABBREVIATION>
mm

>  <REPORTED>
7.5

$$$$
>  <MOLECULE>
OC[C@@H]1[C@@H](O)[C@H](O)[C@@H](O)CN1CCCCCc1ccccc1 [Compound No. 18, N-5-(Phenylpentyl)moranoline tosylate]

>  <UNIT_ABBREVIATION>
mm

>  <REPORTED>
6.8

$$$$
>  <MOLECULE>
Cc1ccc(CCCCN2C[C@H](O)[C@@H](O)[C@H](O)[C@H]2CO)cc1F [Compound No. 32]

>  <UNIT_ABBREVIATION>
mm

>  <REPORTED>
7.5

$$$$
>  <MOLECULE>
CN1C[C@H](O)[C@@H](O)[C@H](O)[C@H]1CO [Compound No. 2, N-methylmoranoline]

>  <UNIT_ABBREVIATION>
mm

>  <REPORTED>
7.9

$$$$
>  <MOLECULE>
COCCOc1cccc(C(C)=CCN2C[C@H](O)[C@@H](O)[C@H](O)[C@H]2CO)c1 [Compound No. 20]

>  <UNIT_ABBREVIATION>
mm

>  <REPORTED>
8.0

$$$$
>  <MOLECULE>
CC(=CCN1C[C@H](O)[C@@H](O)[C@H](O)[C@H]1CO)c1cccc(C)c1 [Compound No. 35, N-(γ-Methyl-m-methylcimnnamyl)moranoline]

>  <UNIT_ABBREVIATION>
mm

>  <REPORTED>
7.8

$$$$

Please examine the following record next.
Ask | Item: OC[C@@H]1[C@@H](O)[C@H](O)[C@@H](O)CN1CCCc1ccccc1 [Compound No. 12, N-(3-Phenylpropyl)moranoline tosylate] Test system: CPAE (calf pulmonary artery endothelia) Read-out: Diameter (mm) of the circle due to fibrinolysis Value: ?
Reply | 5.9

---

Assay: in vivo
Conditions: mouse, ip
Procedure: Four (4) ddY strain male mice of 6 week age were used for each group of the test sample. In intravenous administration, each sample was dissolved in 0.9% physiological saline and the solution was administered through the tail vein. In intraperitoneal administration, each sample was suspended in 0.5% CMC-physiological saline and 0.1 ml of the suspension per […] of mouse body weight was intraperitoneally administered. […]
OBSERVABLE: LD50 at 168 h (mg/kg)
Numbers only here, please. The scale is mg/kg.

Ask | Requested field: LD50 at 168 h. Item: `CN1C[C@H](O)[C@@H](O)[C@H](O)[C@H]1CO`
Reply | 10000

---

assay: Test on acute toxicity; details: mouse, in vivo, iv
OBSERVABLE: LD50 at 168 h (mg/kg)
Numbers only here, please. The scale is mg/kg.

Ask | Requested field: LD50 at 168 h. Item: `OC[C@H]1NC[C@H](O)[C@@H](O)[C@@H]1O`
Reply | 3240

---

Tested on: CPAE (calf pulmonary artery endothelia)
Assay: Thrombolytic test in vitro: CPAE culture supernatant on fibrin plate, lysis circle
Assay type: cell-based
Conditions: 5 µl of 0.2 mg/ml compound solution per well of CPAE cells, 72 hours; 5 µl supernatant on fibrin plate with plasminogen, 4 hours; 4 mm or more = thrombolytic ability induced
Description: Thrombolytic activity-inducing ability in the established vascular endothelial cell culture system was examined using CPAE (calf pulmonary artery endothelia). […] cells were purchased from Dainippon Pharmaceutical Co., Ltd., Department of Laboratory Products. CPAE cells were subcultured in 10% FCS-Eagle MEM medium charged in a culture flask of 25 cm^2. […] Then, the cell suspension was diluted to 10 fold with 0.9 ml of Trypan Blue solution and a cell count was counted with a cell counter. […]
Structures can show the parent of a compound that is named as a salt.
Recorded measurements of Diameter (mm) of the circle due to fibrinolysis, one per entry

Study these solved cases before continuing.
>  <COMPOUND>
OC[C@@H]1[C@@H](O)[C@H](O)[C@@H](O)CN1CCCCc1ccccc1 [Compound No. 15, N-4-Phenylbutylmoranoline tosylate]

>  <REPORTED>
6.3 mm

$$$$
>  <COMPOUND>
CCOc1ccc(C=CCN2CC(O)C(O)C(O)C2CO)cc1 (stereo not shown) [Compound No. 33, N-(p-Ethoxycinnamyl)moranoline]

>  <REPORTED>
7.8 mm

$$$$
>  <COMPOUND>
OC[C@@H]1[C@@H](O)[C@H](O)[C@@H](O)CN1CCCOc1ccccc1Cl [Compound No. 30, N-(3-o-Chlorophenoxypropyl)moranoline]

>  <REPORTED>
7.6 mm

$$$$
>  <COMPOUND>
OC[C@@H]1[C@@H](O)[C@H](O)[C@@H](O)CN1CC(O)COc1ccccc1 (stereo partly shown) [Compound No. 25]

>  <REPORTED>
4.1 mm

$$$$
>  <COMPOUND>
C[N+]1(C)C[C@H](O)[C@@H](O)[C@H](O)[C@H]1CO [Compound No. 21, N,N-Dimethylmoranoline ammonium iodide]

>  <REPORTED>
5.6 mm

$$$$

Ask | Item: CCCCCCCCC(O)CN1C[C@H](O)[C@@H](O)[C@H](O)[C@H]1CO (stereo partly shown) [Compound No. 10, N-(2-Hydroxydecyl)moranoline tosylate] Test system: CPAE (calf pulmonary artery endothelia) Read-out: Diameter (mm) of the circle due to fibrinolysis Value: ?
Reply | 4.5 mm

Ask | Item: OC[C@@H]1[C@@H](O)[C@H](O)[C@@H](O)CN1CCC=Cc1ccccc1 [Compound No. 28] Test system: CPAE (calf pulmonary artery endothelia) Read-out: Diameter (mm) of the circle due to fibrinolysis Value: ?
Reply | 8.3 mm

---

experiment: Test on acute toxicity; details: mouse, in vivo, ip
OBSERVABLE: LD50 at 168 h (mg/kg)
Numbers only here, please. The scale is mg/kg.

Ask | Requested field: LD50 at 168 h. Item: OC[C@H]1NC[C@H](O)[C@@H](O)[C@@H]1O [Compound No. 1, Moranoline]
Reply | 5000

---

test: in vivo; conditions: mouse, po
OBSERVABLE: LD50 at 168 h (mg/kg)
Numbers only here, please. The scale is mg/kg.

Ask | Requested field: LD50 at 168 h. Item: CN1C[C@H](O)[C@@H](O)[C@H](O)[C@H]1CO [Compound No. 2, N-methylmoranoline]
Reply | 10000
